Origin of measurements: patent US20070059799A1

Catalogue of binding affinity ratio (IC50 of standard peptide / IC50 of test peptide) readings, one per entry.
- System name: HLA-A*0301 (human)
No end group written: not given here.
Reported property: binding affinity ratio (IC50 of standard peptide / IC50 of test peptide)

>>> print(df.to_string())
                                     binder  recorded_number
0  WLSLDVSAAFY (not fully specified) [[…] (HBV POL 414)]           0.0034
1  SVVLSRKY (modifications not checked) [HBV POL 739 SVVLSRKY]          -0.0002
2  CLIFLLVLLDY (modifications not checked) [HBV ENV 253 …]           0.0083
3  GLLGFAAPF (modifications not checked) [HBV POL 627 peptide …]           0.0006
4  YLPLDKGIKPY (modifications not checked) [… (HBV POL 122)]          -0.0004
5  LSWLSLDVSA (modifications not checked) [HBV POL 412 …]           0.0048
6  VVRRRGRSPR (modifications not checked) [HBV NUC 177 peptide […] (as printed)]           0.0027
